Where these numbers come from: PubChem BioAssay

# Assay Info: HepG2 cell viability effects, profiling panel, calcein-AM fluorescence, 48 h, basal (AID 1164); also: test concentration not given here
# Condition Summary: higher = more signal
Attribute Measured: z-score

[[record]]
smiles_text = "CCN1C(C)=C(C(=O)OC)[C@@H](c2ccccc2)N2C(=O)[C@](O)(C(=O)OC)[C@@H](c3ccccc3)C(C(=O)c3ccccc3)=C12"
result = 0.534

[[record]]
smiles_text = "CO[C@H]1COC(=O)[C@H](Cc2ccccc2)NC(=O)CC=C[C@@H](C)[C@H](OC)COC(=O)CC=C[C@@H]1C"
result = 0.5

[[record]]
smiles_text = "C=C(CCCC)C(=O)CC[C@@H](OC(=O)c1cccnc1)c1cccc(OCCO)c1"
result = -0.865

[[record]]
smiles_text = "CO[C@H]1COC(=O)[C@@H](C)NC(=O)CC=C[C@@H](C)[C@H](OC)COC(=O)CC=C[C@@H]1C"
result = 0.468

